Values were extracted from patent US6828315B1.

Quick reference: melting point of the listed items.

Consider the following illustrative entries.
Ask | So what's the measured melting point for this one? O=c1c2cc(Cl)ccc2n2c(N3CCCCCC3)nnc2n1Cc1ccccc1
Reply | 162 °C

Ask | So what's the measured melting point for this one? CN(C)c1nnc2n(Cc3ccc(C#N)cc3)c(=O)c3cc(C#N)ccc3n12
Reply | 147 to 149 °C

Ask | So what's the measured melting point for this one? O=c1c2cc(Br)ccc2n2c(N3CCCCCC3)nnc2n1Cc1ccc(F)cc1
Reply | 158 °C

Ask | So what's the measured melting point for this one? Cc1ccc2c(c1)c(=O)n(Cc1ccccc1)c1nnc(N(C)C)n21
Reply | 186 °C

Others:
Ask | So what's the measured melting point for this one? O=c1c2cc(Cl)ccc2n2c(N3CCCCCC3)nnc2n1Cc1ccccc1Cl
Reply | 160 to 162 °C
